These data points were gathered from ChEMBL document CHEMBL1909046.

experiment: DRUGMATRIX: Leukotriene, BLT (LTB4) radioligand binding (ligand: [3H]LTB4); format: cell membranes, Membrane; settings: u-937; Not Active = under 50% inhibition at 10 µM
metric_name: IC50

CCC1(CCC(C)C)C(=O)NC(=O)NC1=O = Not Active
CC(=O)O[C@H]1C(=O)[C@@]2(C)[C@H]([C@H](OC(=O)c3ccccc3)[C@]3(O)C[C@H](OC(=O)[C@H](O)[C@@H](NC(=O)c4ccccc4)c4ccccc4)C(C)=C1C3(C)C)[C@]1(OC(C)=O)CO[C@@H]1C[C@@H]2O = Not Active
O=C1C(CC[S+]([O-])c2ccccc2)C(=O)N(c2ccccc2)N1c1ccccc1 (stereo not drawn) = Not Active
